Answer each item with its documented EC50.
- study target: Melanocortin receptor 3 (Homo sapiens, UniProt P41968)
- Sequence (P41968 whole entry): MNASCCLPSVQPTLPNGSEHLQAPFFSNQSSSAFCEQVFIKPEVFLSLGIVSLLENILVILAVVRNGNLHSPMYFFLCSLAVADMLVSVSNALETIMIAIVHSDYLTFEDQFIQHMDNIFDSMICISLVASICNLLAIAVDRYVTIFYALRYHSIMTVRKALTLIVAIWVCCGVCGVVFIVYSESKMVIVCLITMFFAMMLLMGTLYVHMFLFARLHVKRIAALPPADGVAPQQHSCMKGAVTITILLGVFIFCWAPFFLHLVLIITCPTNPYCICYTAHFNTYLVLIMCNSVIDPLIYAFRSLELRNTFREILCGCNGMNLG
- test method notes: Agonistic activity against human Melanocortin 3 receptor
All answers are understood in nM, so give the number only.

Give EC50 for the following molecule: CC(=O)N[C@@H](Cc1c[nH]cn1)C(=O)NC(Cc1ccccc1)C(=O)NC(Cc1ccccc1)C(=O)N[C@@H](CCCN=C(N)N)C(=O)N[C@@H](Cc1c[nH]c2ccccc12)C(N)=O (stereo in doubt)
170

Give EC50 for the following molecule: CC(C)(C)C(=O)N[C@@H](Cc1ccc(Cl)cc1)C(=O)NC(Cc1ccccc1)C(=O)N[C@@H](CCCN=C(N)N)C(=O)N[C@@H](Cc1c[nH]c2ccccc12)C(N)=O (stereo in doubt)
145

Give EC50 for the following molecule: COP(=S)(N[C@@H](Cc1ccc(Cl)cc1)C(=O)NC(Cc1ccccc1)C(=O)N[C@@H](CCCN=C(N)N)C(=O)N[C@@H](Cc1c[nH]c2ccccc12)C(N)=O)OC (stereo in doubt)
1600

###

- study target: Melanocortin receptor (M1 and M4) (Homo sapiens) (UniProt P32245+Q01726)
- test method notes: Ratio of EC50 of Melanocortin 4 receptor to that of Melanocortin 1 receptor
- Type: protein assay
Answer each item with its documented Ratio.

Give Ratio for the following molecule: CC(C)C(=O)N[C@@H](Cc1ccc(Cl)cc1)C(=O)NC(Cc1ccccc1)C(=O)N[C@@H](CCCN=C(N)N)C(=O)N[C@@H](Cc1c[nH]c2ccccc12)C(N)=O (stereo in doubt)
5

Give Ratio for the following molecule: N=C(N)NCCC[C@H](NC(=O)C(Cc1ccccc1)NC(=O)[C@H](Cc1ccc(Cl)cc1)NC(=O)CCC(=O)c1ccc(F)cc1)C(=O)N[C@@H](Cc1c[nH]c2ccccc12)C(N)=O (stereo in doubt)
2

Give Ratio for the following molecule: CCCCC(=O)N[C@@H](Cc1ccc(Cl)cc1)C(=O)NC(Cc1ccccc1)C(=O)N[C@@H](CCCN=C(N)N)C(=O)N[C@@H](Cc1c[nH]c2ccccc12)C(N)=O (stereo in doubt)
3

Give Ratio for the following molecule: CCOC(=O)N[C@@H](Cc1ccc(Cl)cc1)C(=O)NC(Cc1ccccc1)C(=O)N[C@@H](CCCN=C(N)N)C(=O)N[C@@H](Cc1c[nH]c2ccccc12)C(N)=O (stereo in doubt)
6

Give Ratio for the following molecule: N=C(N)NCCC[C@H](NC(=O)C(Cc1ccccc1)NC(=O)[C@H](Cc1ccc(Cl)cc1)NC(=O)c1cccs1)C(=O)N[C@@H](Cc1c[nH]c2ccccc12)C(N)=O (stereo in doubt)
48

Give Ratio for the following molecule: N=C(N)NCCC[C@H](NC(=O)C(Cc1ccccc1)NC(=O)[C@H](Cc1ccc(Cl)cc1)NC(=O)c1ccncc1)C(=O)N[C@@H](Cc1c[nH]c2ccccc12)C(N)=O (stereo in doubt)
18

Give Ratio for the following molecule: CC(C)(C)C(=O)N[C@@H](Cc1ccc(Cl)cc1)C(=O)NC(Cc1ccccc1)C(=O)N[C@@H](CCCN=C(N)N)C(=O)N[C@@H](Cc1c[nH]c2ccccc12)C(N)=O (stereo in doubt)
16

Give Ratio for the following molecule: COP(=S)(N[C@@H](Cc1ccc(Cl)cc1)C(=O)NC(Cc1ccccc1)C(=O)N[C@@H](CCCN=C(N)N)C(=O)N[C@@H](Cc1c[nH]c2ccccc12)C(N)=O)OC (stereo in doubt)
4
